Collected Rh (in parentheses, from DOSY) values appear next to each entry.
experiment: Translational diffusion NMR (DOSY); assay type: physicochemical; conditions: from comparison with the Rh of dioxane (2.12 Å)

| substance | Rh (in parentheses, from DOSY) (Å) |
| --- | --- |
| Ac-GWAEGLHARPASIFARAATATG-NH2 [Peptide V23A] | 11 |
| Ac-GWAEGLHARAASAFARAATATG-NH2 [P18A/I21A/V23A] | 9 |
| Ac-GWAEGLHARAASAAARAATATG-NH2 [P18A/I21A/F22A/V23A] | 12 |
| Ac-GWAEGLHARAASIFVRAATATG-NH2 [Peptide P18A] | 11 |
| Ac-GWAEGLHARPASIAVRAATATG-NH2 [Peptide F22A] | 11 |
| Ac-GWAEGLHARPASAFVRAATATG-NH2 [Peptide I21A] | 11 |
| Ac-GWAEGLHARPASIFVRAATATG-NH2 [Wild-type] | 11 |
